- subject-of-test: UniProt:O00519
- protocol-details: Inhibition of human FAAH expressed in COS7 cell membranes pre-incubated for 10 mins before [3H]-AEA substrate addition by liquid scintillation counting
- Parameters: species or system COS-7
- test-settings: read-out: pIC50 (converted)
readout-name: IC50 (nM)

smiles-record	subject-of-test	units	reading
COc1nn(Cc2ccc(NC(=O)c3ccccc3)cc2)c(=O)o1	UniProt:O00519	nM	617
COc1nn(Cc2ccc3ccccc3c2)c(=O)o1	UniProt:O00519	nM	3980

P. COc1nn(Cc2cccc(OCc3ccccc3)c2)c(=O)o1
Q. COC(=O)c1ccc(Cn2nc(OC)oc2=O)cc1
R. COc1nn(Cc2ccc(OCc3ccccc3)cc2)c(=O)o1
Exam item: list the entries in increasing order of IC50. A complete answer lists every label in the requested sequence.
R, P, Q
(R: 407 nM, P: 1510 nM, Q: 6760 nM)

----------
- subject-of-test: Monoacylglycerol lipase ABHD6 (Homo sapiens)
- protocol-details: Inhibition of human ABHD6 expressed in HEK293 cells at 1 uM pre-incubated for 10 mins before 2-AG substrate addition followed by rapid 40 fold compound dilution measured after 10 mins by HPLC method
- Format: cell-based
readout-name: pIC50
Lab note — pIC50 values are minus log10 of concentrations in M.

smiles-record	pIC50
COc1nn(Cc2cccc(N)c2)c(=O)o1	5.39

pIC50 measured on `CN(C(=O)Oc1nsnc1N1CCOCC1)C1CCCCCCC1` = 7.04

----------
- subject-of-test: Fatty-acid amide hydrolase 1 (Homo sapiens) (UniProt O00519)
- Sequence (whole entry): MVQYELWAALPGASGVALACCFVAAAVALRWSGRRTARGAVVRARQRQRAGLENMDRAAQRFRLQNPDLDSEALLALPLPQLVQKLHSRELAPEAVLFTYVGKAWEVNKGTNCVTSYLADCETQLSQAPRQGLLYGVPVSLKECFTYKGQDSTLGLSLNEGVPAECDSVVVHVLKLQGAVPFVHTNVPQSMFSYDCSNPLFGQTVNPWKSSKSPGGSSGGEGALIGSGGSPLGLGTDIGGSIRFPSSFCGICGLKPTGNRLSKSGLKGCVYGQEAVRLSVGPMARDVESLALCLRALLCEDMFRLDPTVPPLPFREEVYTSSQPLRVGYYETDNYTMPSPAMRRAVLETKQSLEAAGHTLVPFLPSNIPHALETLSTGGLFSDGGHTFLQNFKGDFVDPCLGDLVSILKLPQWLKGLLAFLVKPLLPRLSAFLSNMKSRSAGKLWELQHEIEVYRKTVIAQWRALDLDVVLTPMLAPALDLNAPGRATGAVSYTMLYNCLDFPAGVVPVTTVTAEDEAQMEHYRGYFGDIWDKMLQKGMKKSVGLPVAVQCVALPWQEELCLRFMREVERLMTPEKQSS
- protocol-details: Inhibition of human FAAH expressed in COS7 cell membranes at 10 uM pre-incubated for 10 mins before [3H]-AEA substrate addition by liquid scintillation counting
- test-settings: COS-7
The source made the active and inactive calls. The rule behind the calls is not given here.
readout-name: inhibition

Solved cases below.
smiles-record	reading
COc1nn(Cc2ccccc2NC(=O)c2ccccc2)c(=O)o1	inactive
COc1nn(Cc2ccc(N)cc2)c(=O)o1	34%
COc1nn(Cc2ccc(C#N)cc2)c(=O)o1	inactive
COc1cccc(Cn2nc(OC)oc2=O)c1	inactive
CCOc1nn(Cc2cccc(N)c2)c(=O)o1	10%
O=c1oc(Oc2ccccc2)nn1Cc1cccc([N+](=O)[O-])c1	38%
CCOc1nn(Cc2cccc([N+](=O)[O-])c2)c(=O)o1	inactive
COC(=O)c1cccc(Cn2nc(OC)oc2=O)c1	20%
COc1nn(Cc2cccc3ccccc23)c(=O)o1	35%
COc1nn(Cc2cccc([N+](=O)[O-])c2)c(=O)o1	7%

Measured on Fatty-acid amide hydrolase 1 (Homo sapiens) (UniProt O00519), `COc1nn(Cc2ccccc2NC(C)=O)c(=O)o1` has a documented inhibition of 11%

Summary: `CN(C(=O)Oc1nsnc1N1CCOCC1)C1CCCCCCC1` , Fatty-acid amide hydrolase 1 (Homo sapiens) (UniProt O00519), inhibition = 18%

# lookup: `Nc1cccc(Cn2nc(Oc3ccccc3)oc2=O)c1` on Fatty-acid amide hydrolase 1 (Homo sapiens) (UniProt O00519), inhibition = 25%

Summary line: `COc1nn(Cc2ccccc2N)c(=O)o1` , Fatty-acid amide hydrolase 1 (Homo sapiens) (UniProt O00519), reported inhibition = 8%

----------
- subject-of-test: Fatty-acid amide hydrolase 1 (Homo sapiens)
- protocol-details: Inhibition of human FAAH expressed in COS7 cell membranes pre-incubated for 10 mins before [3H]-AEA substrate addition by liquid scintillation counting
- Design: species or system COS-7
- test-settings: cos-7; read-out: IC50
readout-name: pIC50
Convention used: pIC50 is expressed as -log10 of the molar concentration.

pIC50 reported for this compound `O=C(N1CCC(=C2c3ccc(Cl)cc3CCc3cccnc32)CC1)n1cncn1` : 5.14

----------
- subject-of-test: Monoacylglycerol lipase ABHD6 (Homo sapiens, UniProt Q9BV23)
- Sequence (Q9BV23 whole entry): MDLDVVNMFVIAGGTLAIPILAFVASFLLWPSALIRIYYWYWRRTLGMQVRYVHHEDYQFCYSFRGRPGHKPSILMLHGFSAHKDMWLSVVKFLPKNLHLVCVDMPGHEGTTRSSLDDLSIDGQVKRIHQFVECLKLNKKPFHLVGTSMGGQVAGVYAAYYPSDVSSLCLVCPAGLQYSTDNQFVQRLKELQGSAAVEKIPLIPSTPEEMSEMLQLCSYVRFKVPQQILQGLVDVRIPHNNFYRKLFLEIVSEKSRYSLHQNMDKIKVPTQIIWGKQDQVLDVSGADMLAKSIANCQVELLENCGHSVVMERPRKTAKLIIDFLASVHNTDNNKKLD
- protocol-details: Inhibition of human ABHD6 expressed in HEK293 cells assessed as reduction in glycerol production from 1-AG hydrolysis pre-incubated for 30 mins before 1-AG substrate addition and measured 90 mins post substrate addition by fluorescence method
- Format: cell-based
pIC50: −log10 of the molar value.
readout-name: pIC50

P. COc1nn(Cc2cccc(N)c2)c(=O)o1
Q. COc1nn(Cc2cccc(C(F)(F)F)c2)c(=O)o1
R. COC(=O)c1cccc(Cn2nc(OC)oc2=O)c1
S. O=c1oc(Oc2ccccc2)nn1Cc1cccc([N+](=O)[O-])c1
T. Nc1cccc(Cn2nc(Oc3ccccc3)oc2=O)c1
Arrange the 5 entries by pIC50 so the values rise. Kindly provide the labels arranged according to the requested ordering.
Q, R, P, S, T

----------
- subject-of-test: Monoglyceride lipase (Homo sapiens)
- Sequence (Q99685 whole entry): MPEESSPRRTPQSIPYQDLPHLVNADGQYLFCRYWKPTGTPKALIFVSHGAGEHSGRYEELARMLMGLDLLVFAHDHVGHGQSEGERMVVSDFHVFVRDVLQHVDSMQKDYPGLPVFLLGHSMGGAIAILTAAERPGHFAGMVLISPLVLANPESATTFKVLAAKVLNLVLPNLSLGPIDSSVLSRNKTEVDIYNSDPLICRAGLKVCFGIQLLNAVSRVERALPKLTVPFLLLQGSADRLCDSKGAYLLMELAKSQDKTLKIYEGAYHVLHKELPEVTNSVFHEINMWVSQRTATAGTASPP
- protocol-details: Inhibition of human MAGL expressed in HEK293 cells pre-incubated for 10 mins before 2-AG substrate addition by HPLC method
- Assay type: cell-based
- test-settings: read-out: IC50
pIC50: −log10 of the molar value.
readout-name: pIC50

Take a look at these entries with their results.
smiles-record	reading
COc1nn(Cc2ccc(OCc3ccccc3)cc2)c(=O)o1	6.28
COc1nn(Cc2cccc(OCc3ccccc3)c2)c(=O)o1	5.49

I. COc1nn(Cc2ccc(NC(=O)c3ccccc3)cc2)c(=O)o1
II. O=c1oc(Oc2ccccc2)nn1Cc1cccc([N+](=O)[O-])c1
III. Nc1cccc(Cn2nc(Oc3ccccc3)oc2=O)c1
Order the entries by their reported pIC50, beginning at the minimum. Record the ranking as a list of labels in the requested order.
III, II, I

----------
- subject-of-test: Monoacylglycerol lipase ABHD6 (Homo sapiens)
- protocol-details: Inhibition of human ABHD6 expressed in HEK293 cells assessed as reduction in glycerol production from 1-AG hydrolysis pre-incubated for 30 mins before 1-AG substrate addition and measured 90 mins post substrate addition by fluorescence method
- Assay type: cell-based
- test-settings: hek293
readout-name: IC50 (nM)
Supply the numeric figure in nM, leaving out any unit text.

Lookup result for `O=C(N1CCC(=C2c3ccc(Cl)cc3CCc3cccnc32)CC1)n1cncn1` ; measured IC50: 1780

----------
- subject-of-test: Fatty-acid amide hydrolase 1 (Homo sapiens)
- Sequence (O00519 whole entry): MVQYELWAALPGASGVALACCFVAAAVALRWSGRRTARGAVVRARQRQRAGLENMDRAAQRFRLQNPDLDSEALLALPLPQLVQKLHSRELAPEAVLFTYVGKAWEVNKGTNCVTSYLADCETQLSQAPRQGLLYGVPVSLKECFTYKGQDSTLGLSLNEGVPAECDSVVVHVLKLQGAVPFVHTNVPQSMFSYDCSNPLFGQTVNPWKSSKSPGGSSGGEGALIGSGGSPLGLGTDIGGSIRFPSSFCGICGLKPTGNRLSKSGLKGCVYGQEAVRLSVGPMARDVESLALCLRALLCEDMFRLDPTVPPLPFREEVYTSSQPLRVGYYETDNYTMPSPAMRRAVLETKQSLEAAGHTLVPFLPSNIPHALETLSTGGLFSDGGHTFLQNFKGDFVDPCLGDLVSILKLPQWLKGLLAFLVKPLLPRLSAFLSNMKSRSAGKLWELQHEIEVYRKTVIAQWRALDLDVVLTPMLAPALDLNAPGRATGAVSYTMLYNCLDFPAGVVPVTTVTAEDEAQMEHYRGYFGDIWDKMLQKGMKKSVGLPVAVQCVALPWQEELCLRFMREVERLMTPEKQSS
- protocol-details: Inhibition of human FAAH expressed in COS7 cell membranes pre-incubated for 10 mins before [3H]-AEA substrate addition by liquid scintillation counting
- Design: species or system COS-7
- test-settings: read-out: IC50
pIC50: −log10 of the molar value.
readout-name: pIC50

smiles-record	readout-name	reading
COc1nn(Cc2cccc(OCc3ccccc3)c2)c(=O)o1	pIC50	5.82

a. COc1nn(Cc2ccc3ccccc3c2)c(=O)o1
b. COc1nn(Cc2ccc(OCc3ccccc3)cc2)c(=O)o1
So which one has the bigger pIC50 here, a or b ? Lab note: record the label of whichever item you select.
b

I. COc1nn(Cc2ccc(NC(=O)c3ccccc3)cc2)c(=O)o1
II. COC(=O)c1ccc(Cn2nc(OC)oc2=O)cc1
In terms of reported pIC50, does I or II have the smaller number? Refer to your chosen entry by its label in the reply.
II
